Test: Cmax in Wistar rat brain at 0.63 mg/kg, iv after 5 mins
Format: ADME, organism-based
Set-up: dose 0.63 mg/kg, route intravenous
measured-quantity: Cmax (ng/g)
Express the result in ng/g but write the number alone.

Sure, the documented Cmax for COc1ccc(F)cc1C1CCN(c2ccn3c(CC4CC4)nnc3c2Cl)CC1 is 316

----------
Experiment: Metabolic stability in Wistar rat cerebrum assessed as intact tracer at 74 MBq, iv measured at 30 mins post administration by gamma counting
Format: ADME, organism-based
Settings: read-out: Stability
measured-quantity: remaining at 0.5 h (%)
Express the result in % but write the number alone.

# mol, value
records = [
    ("[11CH3]Oc1c(F)ccc(F)c1C1CCN(c2ccn3c(CC4CC4)nnc3c2Cl)CC1", 90.3),
]

Sure, the documented remaining at 0.5 h for [11CH3]Oc1cc(F)cc(F)c1C1CCN(c2ccn3c(CC4CC4)nnc3c2Cl)CC1 is 92.9

Sure, the documented remaining at 0.5 h for [11CH3]Oc1ccc(F)c(F)c1C1CCN(c2ccn3c(CC4CC4)nnc3c2Cl)CC1 is 93.1

Sure, the documented remaining at 0.5 h for [11CH3]Oc1ccc(F)cc1C1CCN(c2ccn3c(CC4CC4)nnc3c2Cl)CC1 is 92.4

----------
Tested on: Cerebellum
Experiment: Ratio of SUV in cerebellum in iv dosed Wistar at 2 mins post administration by gamma counting to SUV in cerebellum in iv dosed Wistar at 30 mins post administration by gamma counting
Assay type: ADME, organism-based
Conditions: rat, in vivo
The entries below come with measured Ratio values attached.
Just the number, please, no unit after it.

Answered cases to consult:
# mol, assayed-system, Ratio
records = [
    ("[11CH3]Oc1ccc(F)cc1C1CCN(c2ccn3c(CC4CC4)nnc3c2Cl)CC1", "Cerebellum", 0.63),
    ("[11CH3]Oc1cccc(F)c1C1CCN(c2ccn3c(CC4CC4)nnc3c2Cl)CC1", "Cerebellum", 0.71),
    ("[11CH3]Oc1c(F)ccc(F)c1C1CCN(c2ccn3c(CC4CC4)nnc3c2C(F)(F)F)CC1", "Cerebellum", 0.99),
    ("[11CH3]Oc1c(F)ccc(F)c1C1CCN(c2ccn3c(CC4CC4)nnc3c2Cl)CC1", "Cerebellum", 0.61),
    ("[11CH3]Oc1ccc(F)c(F)c1C1CCN(c2ccn3c(CC4CC4)nnc3c2Cl)CC1", "Cerebellum", 0.95),
]

Field: next compound
Sure, the documented Ratio for [11CH3]Oc1cc(F)cc(F)c1C1CCN(c2ccn3c(CC4CC4)nnc3c2Cl)CC1 is 0.77

----------
Test system: Cerebellum
Test: Biodistribution in Wistar rat cerebellum at 22 Mbq, iv measured at 2 mins post administration by gamma counting
Type: ADME, organism-based
Conditions: in vivo
measured-quantity: Drug uptake (%ID)
Express the result in %ID but write the number alone.

Answered cases to consult:
# mol, measurement-units, value
measured = [
    ("[11CH3]Oc1c(F)ccc(F)c1C1CCN(c2ccn3c(CC4CC4)nnc3c2C(F)(F)F)CC1", "%ID", 0.17),
    ("[11CH3]Oc1cccc(F)c1C1CCN(c2ccn3c(CC4CC4)nnc3c2Cl)CC1", "%ID", 0.17),
    ("[11CH3]Oc1cc(F)cc(F)c1C1CCN(c2ccn3c(CC4CC4)nnc3c2Cl)CC1", "%ID", 0.18),
]

Sure, the documented Drug uptake for [11CH3]Oc1c(F)ccc(F)c1C1CCN(c2ccn3c(CC4CC4)nnc3c2Cl)CC1 is 0.17

Sure, the documented Drug uptake for [11CH3]Oc1ccc(F)c(F)c1C1CCN(c2ccn3c(CC4CC4)nnc3c2Cl)CC1 is 0.15

Sure, the documented Drug uptake for [11CH3]Oc1ccc(F)cc1C1CCN(c2ccn3c(CC4CC4)nnc3c2Cl)CC1 is 0.1

----------
System: Intestine
Assay: Biodistribution in Wistar rat intestine at 22 Mbq, iv measured at 60 mins post administration by gamma counting
Format: ADME, organism-based
Details: in vivo, 1 h
measured-quantity: Drug uptake

# mol, Drug uptake
data = [
    ("[11CH3]Oc1ccc(F)cc1C1CCN(c2ccn3c(CC4CC4)nnc3c2Cl)CC1", "Active"),
    ("[11CH3]Oc1ccc(F)c(F)c1C1CCN(c2ccn3c(CC4CC4)nnc3c2Cl)CC1", "Active"),
    ("[11CH3]Oc1cc(F)cc(F)c1C1CCN(c2ccn3c(CC4CC4)nnc3c2Cl)CC1", "Active"),
    ("[11CH3]Oc1cccc(F)c1C1CCN(c2ccn3c(CC4CC4)nnc3c2Cl)CC1", "Active"),
]

Field: next molecule
Sure, the documented Drug uptake for [11CH3]Oc1c(F)ccc(F)c1C1CCN(c2ccn3c(CC4CC4)nnc3c2Cl)CC1 is 35.7%

----------
System: Rattus norvegicus
Assay: Biodistribution in Wistar rat urinary system at 22 Mbq, iv measured at 60 mins post administration by gamma counting
Assay type: ADME, organism-based, Urine
Details: in vivo, 1 h
measured-quantity: Drug uptake

Answered cases to consult:
# mol, value
measured = [
    ("[11CH3]Oc1cccc(F)c1C1CCN(c2ccn3c(CC4CC4)nnc3c2Cl)CC1", "Active"),
    ("[11CH3]Oc1cc(F)cc(F)c1C1CCN(c2ccn3c(CC4CC4)nnc3c2Cl)CC1", "Active"),
    ("[11CH3]Oc1ccc(F)cc1C1CCN(c2ccn3c(CC4CC4)nnc3c2Cl)CC1", "Active"),
    ("[11CH3]Oc1c(F)ccc(F)c1C1CCN(c2ccn3c(CC4CC4)nnc3c2Cl)CC1", "2.4 %ID"),
]

Field: next compound
// assay Rattus norvegicus, entry [11CH3]Oc1ccc(F)c(F)c1C1CCN(c2ccn3c(CC4CC4)nnc3c2Cl)CC1 , Drug uptake value = Active

----------
Assay: Drug level in Wistar rat brain at 0.63 mg/kg, iv after 1 hr
Format: ADME, organism-based
Set-up: dose 0.63 mg/kg, route intravenous
Conditions: read-out: Drug uptake
measured-quantity: concentration at 1 h (ng/g)
Express the result in ng/g but write the number alone.

Sure, the documented concentration at 1 h for COc1ccc(F)cc1C1CCN(c2ccn3c(CC4CC4)nnc3c2Cl)CC1 is 50

----------
The entries below come with measured Emax values attached.
Molecular target: Metabotropic glutamate receptor 2 (Homo sapiens)
Sequence (Q14416 19-872 limits assumed): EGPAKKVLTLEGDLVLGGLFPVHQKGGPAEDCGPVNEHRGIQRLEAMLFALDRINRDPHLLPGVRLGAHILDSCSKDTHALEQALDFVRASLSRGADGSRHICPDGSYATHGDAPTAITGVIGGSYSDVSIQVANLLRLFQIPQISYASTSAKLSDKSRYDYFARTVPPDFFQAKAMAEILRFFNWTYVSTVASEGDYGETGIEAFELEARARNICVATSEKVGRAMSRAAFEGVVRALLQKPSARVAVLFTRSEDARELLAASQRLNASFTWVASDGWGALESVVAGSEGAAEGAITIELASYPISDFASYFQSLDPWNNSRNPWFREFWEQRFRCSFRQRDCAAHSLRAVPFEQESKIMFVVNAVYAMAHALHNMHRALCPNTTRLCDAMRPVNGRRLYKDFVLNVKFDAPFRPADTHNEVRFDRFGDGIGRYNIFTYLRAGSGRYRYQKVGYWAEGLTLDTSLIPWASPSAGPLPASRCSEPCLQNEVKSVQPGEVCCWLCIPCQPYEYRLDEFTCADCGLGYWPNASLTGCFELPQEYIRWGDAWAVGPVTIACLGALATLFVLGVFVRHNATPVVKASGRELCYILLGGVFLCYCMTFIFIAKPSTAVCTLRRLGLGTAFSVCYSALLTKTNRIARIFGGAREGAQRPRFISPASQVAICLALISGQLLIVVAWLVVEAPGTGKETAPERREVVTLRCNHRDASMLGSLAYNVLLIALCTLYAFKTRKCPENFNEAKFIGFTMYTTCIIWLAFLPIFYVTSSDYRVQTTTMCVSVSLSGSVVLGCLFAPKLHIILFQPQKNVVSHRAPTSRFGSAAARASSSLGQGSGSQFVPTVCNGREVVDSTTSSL
Assay: Agonist activity at human mGLuR2 expressed in CHO cell membrane assessed as […] after 30 mins by scintillation counting relative to control
Format: functional, cell membranes
Express the result in % but write the number alone.

Answered cases to consult:
# mol, Emax, %
rows = [
    ("COc1c(F)ccc(F)c1C1CCN(c2ccn3c(CC4CC4)nnc3c2Cl)CC1", 282),
    ("COc1ccc(F)cc1C1CCN(c2ccn3c(CC4CC4)nnc3c2Cl)CC1", 283),
    ("COc1cccc(F)c1C1CCN(c2ccn3c(CC4CC4)nnc3c2Cl)CC1", 304),
]

Sure, the documented Emax for COc1ccccc1C1CCN(c2ccn3c(CC4CC4)nnc3c2Cl)CC1 is 345

Sure, the documented Emax for COc1c(F)cccc1C1CCN(c2ccn3c(CC(F)(F)F)nnc3c2C#N)CC1 is 306

----------
System: Liver
Test: Biodistribution in Wistar rat liver at 22 Mbq, iv measured at 60 mins post administration by gamma counting
Format: ADME, organism-based
Details: in vivo, 1 h
measured-quantity: Drug uptake

# mol, assayed-system, Drug uptake
rows = [
    ("[11CH3]Oc1cc(F)cc(F)c1C1CCN(c2ccn3c(CC4CC4)nnc3c2Cl)CC1", "Liver", "Active"),
    ("[11CH3]Oc1ccc(F)cc1C1CCN(c2ccn3c(CC4CC4)nnc3c2Cl)CC1", "Liver", "Active"),
    ("[11CH3]Oc1ccc(F)c(F)c1C1CCN(c2ccn3c(CC4CC4)nnc3c2Cl)CC1", "Liver", "Active"),
    ("[11CH3]Oc1c(F)ccc(F)c1C1CCN(c2ccn3c(CC4CC4)nnc3c2Cl)CC1", "Liver", "35.7%"),
]

Field: next compound
// assay Liver, entry [11CH3]Oc1cccc(F)c1C1CCN(c2ccn3c(CC4CC4)nnc3c2Cl)CC1 , Drug uptake value = Active

----------
The entries below come with measured Selectivity ratio values attached.
Tested on: HEK293
Assay: Selectivity ratio for human mGluR7 expressed in HEK293 cells to human mGluR2 expressed in CHO cell membranes
Type: cell-based

Answered cases to consult:
# mol, Selectivity ratio
measured = [
    ("COc1ccc(F)c(F)c1C1CCN(c2ccn3c(CC4CC4)nnc3c2Cl)CC1", "> 350"),
    ("COc1c(F)ccc(F)c1C1CCN(c2ccn3c(CC4CC4)nnc3c2C(F)(F)F)CC1", "> 350"),
    ("COc1ccc(F)cc1C1CCN(c2ccn3c(CC4CC4)nnc3c2Cl)CC1", "> 350"),
    ("COc1cccc(F)c1C1CCN(c2ccn3c(CC4CC4)nnc3c2Cl)CC1", "> 350"),
    ("COc1c(F)ccc(F)c1C1CCN(c2ccn3c(CC4CC4)nnc3c2Cl)CC1", "> 350"),
]

Field: next compound
Sure, the documented Selectivity ratio for COc1cc(F)cc(F)c1C1CCN(c2ccn3c(CC4CC4)nnc3c2Cl)CC1 is > 350
